- assay: Half life in human
- Type: ADME
readout label: half-life (h)

compound_string=CCS(=O)(=O)Nc1ccc(Oc2ccc(F)cc2F)c(-c2cn(C)c(=O)c3[nH]ccc23)c1 readout_label=half-life recorded_measurement=25

====

- assay: Toxicity in mouse xenografted with human haematological tumor at 12.5 mg/kg, po
- Format: organism-based
readout label: EC50 (nM)

compound="CC1(C)CCC(c2ccc(Cl)cc2)=C(CN2CCN(c3ccc(C(=O)NS(=O)(=O)c4ccc(N[C@H](CCN5CCOCC5)CSc5ccccc5)c(S(=O)(=O)C(F)(F)F)c4)cc3)CC2)C1 [NAVITOCLAX]" recorded_measurement=83
compound="CC1(C)CCC(CN2CCN(c3ccc(C(=O)NS(=O)(=O)c4ccc(NCC5CCOCC5)c([N+](=O)[O-])c4)c(Oc4cnc5[nH]ccc5c4)c3)CC2)=C(c2ccc(Cl)cc2)C1 [VENETOCLAX]" recorded_measurement=5500
